Target: human recombinant dopamine D2L receptor (Homo sapiens, UniProt P14416)
Construct: expressed in transfected cells; host or cells: CHO cells
Sequence (P14416 whole entry): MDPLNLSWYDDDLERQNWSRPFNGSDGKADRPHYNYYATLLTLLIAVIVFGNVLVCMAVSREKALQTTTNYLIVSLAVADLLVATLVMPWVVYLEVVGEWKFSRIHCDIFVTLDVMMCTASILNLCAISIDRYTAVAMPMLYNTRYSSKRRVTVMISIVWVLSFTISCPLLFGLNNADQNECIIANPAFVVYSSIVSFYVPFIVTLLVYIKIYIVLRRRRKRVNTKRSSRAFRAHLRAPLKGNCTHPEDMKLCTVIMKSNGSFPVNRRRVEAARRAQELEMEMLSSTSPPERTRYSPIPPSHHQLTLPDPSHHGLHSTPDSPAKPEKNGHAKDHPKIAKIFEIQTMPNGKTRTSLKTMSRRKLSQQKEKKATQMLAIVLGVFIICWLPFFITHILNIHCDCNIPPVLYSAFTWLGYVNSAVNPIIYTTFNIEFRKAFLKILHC
Experiment: Dopamine D2L radioligand binding ([3H]Spiperone)
Conditions: 2 h, 1 μM ligand conc.; read-out: Percent Inhibition of ligand binding Dopamine (1 μM ligand conc.) D2L
# maps each entry to its inhibition at 1 µM
Write the answer as a number in %, unit excluded.

Example entries and their recorded answers appear below.
{"compound": "CCC1c2c(c3cc(Cl)ccc3n2C#Cc2ccc(F)cc2)CCN1C (centres unmarked)", "result_units": "%", "inhibition at 1 µM": -8}
{"compound": "Cc1ccc(CCn2c3c(c4cc(Cl)ccc42)CCN(C)C3C)cn1 (centres unmarked)", "result_units": "%", "inhibition at 1 µM": 5}
{"compound": "COC(=O)Cn1c2c(c3cc(C)ccc31)CCN(C)C2", "result_units": "%", "inhibition at 1 µM": -1}
{"compound": "C/C(=C\\n1c2c(c3cc(C)ccc31)CCN(C)C2)c1ccc(F)cc1", "result_units": "%", "inhibition at 1 µM": 27}

Now for another entry.
Which inhibition at 1 µM is reported for this compound? CC1c2c(c3cc(Cl)ccc3n2C#Cc2ccc(F)cc2)CCN1C (centres unmarked)
14

---

Examples of compounds with documented inhibition at 1 µM follow.
Target: human recombinant serotonin (5-Hydroxytryptamine) 5-HT6 receptor (Homo sapiens)
Construct: expressed in transfected cells; host or cells: human HeLa cells
Sequence (P50406 whole entry): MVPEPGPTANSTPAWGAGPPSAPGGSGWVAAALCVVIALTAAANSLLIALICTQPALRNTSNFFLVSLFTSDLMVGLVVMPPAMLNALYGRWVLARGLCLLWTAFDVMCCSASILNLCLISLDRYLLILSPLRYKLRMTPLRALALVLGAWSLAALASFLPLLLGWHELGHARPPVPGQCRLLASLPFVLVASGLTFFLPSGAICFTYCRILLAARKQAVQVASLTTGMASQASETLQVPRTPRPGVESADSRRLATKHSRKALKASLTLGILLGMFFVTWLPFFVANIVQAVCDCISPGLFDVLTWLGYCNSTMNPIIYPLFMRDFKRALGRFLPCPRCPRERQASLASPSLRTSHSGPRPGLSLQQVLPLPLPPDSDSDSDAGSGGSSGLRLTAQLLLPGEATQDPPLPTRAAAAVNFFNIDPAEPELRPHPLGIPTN
Test: Serotonin 5-HT6 radioligand binding ([3H]LSD)
Details: 2 h; read-out: Percent Inhibition of ligand binding Serotonin (1 μM ligand concentration) 5-HT6
Description: To evaluate in radioligand binding assays the activity of compounds of the invention, human recombinant serotonin (5-Hydroxytryptamine) 5-HT6 receptor expressed in human HeLa cells (Monsma, F. J. Jr. et al., Mol. Pharmacol. 43:320, 1993) in a modified Tris-HCl buffer (50 mM Tris-HCl, pH 7.4, 150 mM NaCl, 2 mM Ascorbic Acid, 0.001% BSA) was used. […] Receptor proteins were filtered and washed, the filters were then counted to determine [3H]LSD specifically bound. […]
Use % as the unit, but write only the number.

Give the reported inhibition at 1 µM for CN1CCc2c(n(CC(=O)N(C)C3CCCCC3)c3ccc(Cl)cc23)C1 (system: human recombinant serotonin (5-Hydroxytryptamine) 5-HT6 receptor (Homo sapiens)).
1

Request: inhibition at 1 µM, test system human recombinant serotonin (5-Hydroxytryptamine) 5-HT6 receptor (Homo sapiens), entry CN1CCc2c(n(CC(=O)N(C)C)c3ccc(Cl)cc23)C1
9

Record COc1ccc(C(O)Cn2c3c(c4cc(Cl)ccc42)CCN(C)C3)cc1OC (stereo not drawn) : what is its inhibition at 1 µM with human recombinant serotonin (5-Hydroxytryptamine) 5-HT6 receptor (Homo sapiens)?
21

# query: inhibition at 1 µM | item COC(=O)Cn1c2c(c3cc(C)ccc31)CCN(C)C2 | system: human recombinant serotonin (5-Hydroxytryptamine) 5-HT6 receptor (Homo sapiens)
6

Hello, I am looking for reported inhibition at 1 µM with human recombinant serotonin (5-Hydroxytryptamine) 5-HT6 receptor (Homo sapiens) for CN1CCc2c(n(CC(O)c3ccccc3)c3ccc(Cl)cc23)C1 (stereo not drawn) . Could you help?
66

Please provide the recorded inhibition at 1 µM for C/C(=C\n1c2c(c3cc(C)ccc31)CCN(C)C2c1ccccc1)c1ccc(Cl)cc1 (stereo not drawn) , tested on human recombinant serotonin (5-Hydroxytryptamine) 5-HT6 receptor (Homo sapiens).
16

human recombinant serotonin (5-Hydroxytryptamine) 5-HT6 receptor (Homo sapiens) / inhibition at 1 µM / CCC1c2c(c3cc(Cl)ccc3n2/C=C(\C)c2ccc(Cl)cc2)CCN1C (stereo not drawn) : value?
23

Give recorded inhibition at 1 µM with human recombinant serotonin (5-Hydroxytryptamine) 5-HT6 receptor (Homo sapiens) for the following compound: CCC1c2c(c3cc(Cl)ccc3n2C#Cc2ccc(F)cc2)CCN1C (stereo not drawn)
22

Give recorded inhibition at 1 µM with human recombinant serotonin (5-Hydroxytryptamine) 5-HT6 receptor (Homo sapiens) for the following compound: Cc1ccc2c(c1)c1c(n2C#Cc2ccc(Cl)cc2)CN(C)CC1
7
